The origin of these recorded values is patent US11077120B2.

biological target: human IP receptors (Homo sapiens); construct: expressed in transfected cells; assay: cell-based cAMP TR-FRET assay, IP (agonist iloprost); details: Table 2
Sequence (P43119 whole entry): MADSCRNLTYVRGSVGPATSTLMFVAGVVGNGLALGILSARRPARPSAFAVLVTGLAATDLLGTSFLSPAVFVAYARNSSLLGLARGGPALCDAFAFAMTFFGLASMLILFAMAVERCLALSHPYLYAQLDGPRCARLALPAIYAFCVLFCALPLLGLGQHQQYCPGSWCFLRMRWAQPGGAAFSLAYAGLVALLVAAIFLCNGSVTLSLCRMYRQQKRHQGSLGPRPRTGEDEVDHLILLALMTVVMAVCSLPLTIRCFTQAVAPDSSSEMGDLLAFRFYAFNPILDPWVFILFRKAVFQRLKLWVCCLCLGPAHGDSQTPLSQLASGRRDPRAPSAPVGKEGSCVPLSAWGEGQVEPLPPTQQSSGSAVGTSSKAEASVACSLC

# sampleSmiles, Selective Index (IP/EP2)
measured = [
    ("CCCN(CCC)c1ccc(C(=O)NCCn2c(C)cc3ccccc32)cc1", 95),
    ("Cc1cc2ccccc2n1CCNC(=O)c1ccc(N2CCCCC2)cc1", 360),
    ("Cc1cc2ccccc2n1CCNC(=O)c1ccc(N2CCCCCC2)cc1", 375),
    ("Cc1cc2ccccc2n1CCNC(=O)c1ccc2c(c1)n(C)c(=O)n2C", 1200),
    ("Cc1cc2ccccc2n1CCNC(=O)c1ccc(N2CCOCC2)c(F)c1", 217),
    ("Cc1cc2ccccc2n1CCNC(=O)c1ccc(N2CCC(O)CC2)cc1", 675),
    ("Cc1cc2ccccc2n1CCNC(=O)c1ccc(N2CCOCC2)cc1", 206),
    ("Cc1cc2ccccc2n1CCNC(=O)c1ccc(N2CCCC2)cc1", 570),
]

---

molecular target: human DP1 receptors (Homo sapiens, UniProt Q13258); construct: expressed in transfected cells; experiment: cell-based cAMP TR-FRET assay, DP1 (agonist BW245C); settings: Table 2; read-out: KB DP1
Sequence (Q13258 whole entry): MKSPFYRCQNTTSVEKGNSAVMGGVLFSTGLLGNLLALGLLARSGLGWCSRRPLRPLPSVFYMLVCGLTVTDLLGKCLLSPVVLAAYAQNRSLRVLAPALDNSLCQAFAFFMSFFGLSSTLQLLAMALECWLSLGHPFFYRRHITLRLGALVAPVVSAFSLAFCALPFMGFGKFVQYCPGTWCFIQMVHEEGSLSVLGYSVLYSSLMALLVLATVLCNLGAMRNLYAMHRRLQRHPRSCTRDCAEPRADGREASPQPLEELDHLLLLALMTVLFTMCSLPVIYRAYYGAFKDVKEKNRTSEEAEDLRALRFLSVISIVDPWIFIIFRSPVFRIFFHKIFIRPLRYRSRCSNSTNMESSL

# compound, measureUnit, qualifierOperator, Kb
records = [
    ("Cc1cc2ccccc2n1CCNC(=O)c1ccc(N2CCCC2)cc1 [Compound 7j]", "µM", ">", 10),
    ("Cc1cc2ccccc2n1CCNC(=O)c1ccc(N2CCCCC2)cc1 [Compound 7k]", "µM", "=", 2.57),
    ("CCN(CC)c1ccc(C(=O)NCCc2c(C)[nH]c3ccccc23)cc1 [Compound 9a]", "µM", "=", 9.48),
    ("CCN(CC)c1ccc(C(=O)NCCn2c(C)cc3ccccc32)cc1 [Compound 6f]", "µM", "=", 3.19),
    ("Cc1cc2ccccc2n1CCNC(=O)c1ccc2c(c1)n(C)c(=O)n2C [Compound 8a]", "µM", "=", 6.29),
    ("Cc1cc2ccccc2n1CCNC(=O)c1ccc(N(C)C)cc1 [Compound 6e]", "µM", "=", 6.43),
    ("Cc1cc2ccccc2n1CCNC(=O)c1ccc(N2CCOCC2)cc1 [Compound 7p]", "µM", "=", 5.21),
]

---

test system: C6-glioma cells; details: read-out: Cytotoxicity (CC50); Table 4

# compound, tgt, CC50
rows = [
    ("COc1cc(/C=C/C(=O)NCCn2c(C)cc3ccccc32)cc(OC)c1OC [Compound 15a]", "C6-glioma cells", "172 µM"),
]

---

test: aqueous solubility by nephelometry; settings: Table 3; PBS buffer (pH 7.4) with 1% DMSO by nephelometry
Cut-off 90 µM on Solubility, inclusive. At or above means class 1; below means class 0.

# compound, classLabel
measured = [
    ("Cc1cc2ccccc2n1CCNC(=O)/C=C/c1ccc(OCCCO)cc1 [Compound 16e]", "class 0"),
    ("COc1cc(/C=C/C(=O)NCCn2c(C)cc3ccccc32)cc(OC)c1OC [Compound 15a]", "class 0"),
    ("COc1cc(/C=C/C(=O)NCCn2c(CNC3CCN(C)CC3)cc3ccccc32)cc(OC)c1OC [Compound 15m]", "class 1"),
    ("Cc1[nH]c2ccccc2c1CCNC(=O)/C=C/c1ccc(OCCO)c(OCCO)c1 [Compound 16c]", "class 1"),
]
